# system-under-test: T1, Cdc25, P04821
# T1 sequence (P04821 50-136, looked up): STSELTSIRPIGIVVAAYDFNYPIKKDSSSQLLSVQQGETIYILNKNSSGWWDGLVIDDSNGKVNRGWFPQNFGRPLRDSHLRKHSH
# measurement-notes: SPOT array
# assay-setup: median of control spots 969
measured-endpoint: SPOT intensity

binder: EEEEEHPPLPARRKS
assay-value: 0
--
binder: LKVTPGRRAPTISKI
assay-value: 13
--
binder: IRMPSNPALPKKLLN
assay-value: 4
--
binder: KNRKNLPTIPIRLSG
assay-value: 5
--
binder: KTRLRPAFIQQLWSS
assay-value: 13
--
binder: QTMRQAPKRPDADVA
assay-value: 0
--
binder: FLIKFTPKFPQSIDH
assay-value: 209
--
binder: YVRRRPRVRLEPLLS
assay-value: 156
--
binder: VYTRTAFQIPGDDKI
assay-value: 2
--
binder: PALPSLPPPPLLNVD
assay-value: 0
--
binder: WRPRIVPILPYITRL
assay-value: 14
--
binder: KKEKKPPKIPKKVYT
assay-value: 3
--
binder: LLGRKRPVMERVVDI
assay-value: 9
--
binder: LKHGWKPLRPIKLIS
assay-value: 14
--
binder: SPLGAPPPPPHKDHL
assay-value: 0
--
binder: VFQFQMPTTPISTKM
assay-value: 0
--
binder: GSKSGPPPRPKKPST
assay-value: 0
--
binder: RRRDFGAPANKRPRR
assay-value: 11
--
binder: KMSRSPPRPPSLKII
assay-value: 9
--
binder: VLRFLGFPLPIFEKG
assay-value: 28
--
binder: APKHAPPPVPNETDN
assay-value: 0
--
binder: VTHRLRISIPGITGR
assay-value: 19
--
binder: RKRRTHLRLPLIRSN
assay-value: 59
--
binder: QFDLKMPSKPIHNLK
assay-value: 1
--
binder: PHNPSPFFPPPDFND
assay-value: 0
--
binder: PLQSKIPMLPSRRTM
assay-value: 0
--
binder: DRIRMFIRFPKFLLE
assay-value: 77
--
binder: SKAKRPKFLLDLQIK
assay-value: 26
--
binder: NRLRKRLNLPSEISI
assay-value: 42
--
binder: IHTRRPSSTSQYLIR
assay-value: 10
